For each record, write down the corresponding median fluorescence intensity, fold over isotype control.
molecular target: SARS-CoV-2 full length spike protein, V483A mutant (SARS-CoV-2, UniProt P0DTC2 14-1273)
Respond with a number, then the unit of measure.

binder: antibody 301 (antibody, V domains shown) VH: QVQLVQSGAEVKKPGASVKVSCKVSGYTLTELSMHWVRQAPGKGLEWMGGFDPEDGETIYAQKFQGRVTMTEDTSTDTAYMELSSLRSEDTAVYYCATAFCGGDCYPPDALDIWGQGTMVTVSS VL: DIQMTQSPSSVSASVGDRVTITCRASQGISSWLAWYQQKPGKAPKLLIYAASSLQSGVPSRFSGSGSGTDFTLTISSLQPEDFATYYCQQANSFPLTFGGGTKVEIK
measValue: 21.3 fold over isotype

binder: antibody 295 (antibody, V domains shown) VH: QVQLQESGPGLVKPSQTLSLTCTVSGGSISSSDYYWSWIRQPPGKGLEWIGYIYYSGSTYYNPSLKSRVTISVDTSKNQFSLKLSSVTAADTAVYYCARVVGYCSSTSCYVDYWGQGTLVTVSS VL: EIVLTQSPATLSLSPGERVTLSCRASQSVSSYLAWYQQKPGQAPRLLIYDASNRATGIPARFSGSGSGTDFTLTISSLEPEDFAVYYCQQRSNWPPGLTFGGGTKVEIK
measValue: 9.93 fold over isotype

Consider the additional binder presented here.
Incoming: Given the entry antibody 300 (antibody, V domains shown) VH: QVQLVESGGGVVQPGRSLTLSCAASGFTFSSYAMHWVRQAPGKGLEWVALISYDGNNKYYADSVKGRFTFSRDNSKNTLYLQMNSLRAEDTAVYYCARTNSGSYRTAFDYWGQGTLVTVSS VL: DIQMTQSPSTLSASVGDRVTITCRASQSISIWLAWYQQKPGKAPKLLIYKASSLESGVPSRFSGSGSGTEFTLTISSLQPDDFATYYCQQYNSLWTFGQGTKVEIK , report its measured median fluorescence intensity, fold over isotype control.
Outgoing: 10.2 fold over isotype

Source listed as patent US20210292393A1.
